TARGET OR SYSTEM: Disintegrin and metalloproteinase domain-containing protein 17 (Homo sapiens) (UniProt P78536)
Sequence (P78536 215-824 limits assumed): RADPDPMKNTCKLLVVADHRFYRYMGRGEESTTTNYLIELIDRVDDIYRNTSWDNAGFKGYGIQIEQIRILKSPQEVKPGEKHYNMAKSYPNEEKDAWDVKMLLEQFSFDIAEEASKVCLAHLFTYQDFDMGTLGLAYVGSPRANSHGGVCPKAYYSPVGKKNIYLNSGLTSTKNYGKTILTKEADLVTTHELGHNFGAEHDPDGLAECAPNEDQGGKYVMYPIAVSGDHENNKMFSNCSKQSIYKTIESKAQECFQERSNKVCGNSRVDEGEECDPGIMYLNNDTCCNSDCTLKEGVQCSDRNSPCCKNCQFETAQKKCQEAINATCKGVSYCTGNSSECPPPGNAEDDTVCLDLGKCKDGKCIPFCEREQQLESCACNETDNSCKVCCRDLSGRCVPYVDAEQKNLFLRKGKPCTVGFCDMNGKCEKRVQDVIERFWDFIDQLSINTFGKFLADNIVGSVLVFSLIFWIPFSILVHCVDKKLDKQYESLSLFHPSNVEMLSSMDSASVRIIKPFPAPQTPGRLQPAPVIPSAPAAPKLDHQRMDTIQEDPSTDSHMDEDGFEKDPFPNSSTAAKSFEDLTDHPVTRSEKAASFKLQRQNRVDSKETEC
PROTOCOL DESCRIPTION: inhibition of ADAM17 peptide cleavage – biochemical, QFRET, primary screen (AID 720648)
CONDITION LABEL: recombinant ADAM17, EDANS/DABCYL FRET peptide cleavage; at 6.95 µM
Screen size: about 370,000 compounds; about 3,100 (0.84%) were called active.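 How the source made its calls: active means inhibition above the mean of compounds lying between control limits plus 3 SD, set per campaign (cut at about 8.5% in these data); inactive means the rest.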 Many of the other results were omitted from the sample, so actives are more common in it than they were.
# output must be one of active, inactive

Sample answers from the record:
What did the test return for Cc1cc(NC(=O)CN2C(=O)NC(CCc3ccccc3)C2=O)no1 (stereo not drawn) ?
inactive

Next entry: `COC(=O)[C@]12C[C@H](CC(=O)N3CCOCC3)C(=O)N(Cc3ccc(Cl)cc3Cl)C1=C[C@H](C(C)C)O[C@@H]2C1CC1`
inactive

Please give the result for CC(NCc1ccco1)C(=O)N1CCCCC1 (stereo not drawn) too.
inactive

How about this compound: `COc1ccccc1C(=O)NC(=S)NC12CC3CC(CC(C3)C1)C2`
inactive

Now this one: COc1ccc(S(=O)(=O)N2CCN(C(C)C(=O)Nc3ccc(C(C)C)cc3)CC2)cc1 (stereo not drawn)
active

More entries:
Hi team, can someone confirm the assay call for CN(C(=O)c1cccc(NC(=O)Cc2cccc(NC(=O)C3CCCN(C(=O)C4CC4)C3)c2)c1)C1CCC1 (stereo not drawn) ?
inactive

Moving on to `O=C1[C@H]2[C@@H](c3ccc(C(F)(F)F)cc3)N[C@]3(CCCN(Cc4ccc(Br)cc4)C3=O)[C@H]2C(=O)N1Cc1ccccc1`
active

Now this one: `CCN1C(=O)C(=O)N(CC(=O)Nc2cc(C)ccc2C)C1=O`
inactive

Likewise for `COc1ccc(C2(CNC(=O)Cc3ccc(OC)c(OC)c3)CCCC2)cc1` ?
inactive

Next compound up: `COc1ccc(C2(c3ccc(OC)cc3)NC(=O)N(CC(=O)Nc3cc(C)on3)C2=O)cc1`
inactive

How about this compound: `COc1ccc(Cl)cc1NC(=O)COC(=O)c1ccc(Br)o1`
inactive

Again, but for `S=C(NCc1ccc(Cl)cc1)NC12CC3CC(CC(C3)C1)C2`
active

Try this compound too: COc1cccc(CNC(C)C(=O)Nc2ccc(S(=O)(=O)N3CCCC3)cc2)c1 (stereo not drawn)
inactive

All values here come from PubChem BioAssay AID720648.
